The reported numbers originate from the supplement of paper PMC9112550.

# Tested on: Escherichia coli TOP10
# procedure_summary: shrunken log2 fold change of peptide-encoding DNA abundance (4.5 h post-induction vs induction); higher = less antimicrobial activity (less host growth inhibition)
# stated_conditions: time post-induction: 4.5 h; library: site-saturation at positions 5, 18, 19, 20
Class class 1: shrunken log2 fold change at least -0.02. Class class 0: shrunken log2 fold change below -0.02.

[
  {
    "sequence_text": "RRIRNRPPRLPRPRPRPRRYPRP",
    "tgt": "Escherichia coli TOP10",
    "label_value": "class 1"
  },
  {
    "sequence_text": "RRIRTRPPRLPRPRPRPCNEPRP",
    "tgt": "Escherichia coli TOP10",
    "label_value": "class 0"
  },
  {
    "sequence_text": "RRIRRRPPRLPRPRPRPPAHPRP",
    "tgt": "Escherichia coli TOP10",
    "label_value": "class 1"
  },
  {
    "sequence_text": "RRIRIRPPRLPRPRPRPPFWPRP",
    "tgt": "Escherichia coli TOP10",
    "label_value": "class 1"
  },
  {
    "sequence_text": "RRIRTRPPRLPRPRPRPRGSPRP",
    "tgt": "Escherichia coli TOP10",
    "label_value": "class 1"
  },
  {
    "sequence_text": "RRIRSRPPRLPRPRPRPSPWPRP",
    "tgt": "Escherichia coli TOP10",
    "label_value": "class 0"
  }
]

query: Is it the case that `RRIRKRPPRLPRPRPRPKREPRP` has shrunken log2 fold change reaching or exceeding -0.02?
result: class 1

query: Quick check: does `RRIRMRPPRLPRPRPRPATVPRP` have shrunken log2 fold change greater than or equal to -0.02?
result: class 1

query: API: above_or_equal(metric=shrunken log2 fold change, cutoff=-0.02) for item `RRIRSRPPRLPRPRPRPFKNPRP`
result: class 0

query: # check: shrunken log2 fold change of `RRIRDRPPRLPRPRPRPINKPRP` is greater than or equal to -0.02
result: class 0

query: Textbook exercise: given the entry `RRIRMRPPRLPRPRPRPIRFPRP` , state whether its shrunken log2 fold change is greater than or equal to -0.02.
result: class 0

query: Does the sequence `RRIRHRPPRLPRPRPRPTTTPRP` have recorded shrunken log2 fold change that is -0.02 or more?
result: class 1

###

# Test system: Escherichia coli TOP10;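 also: peptides expressed intracellularly from a pBAD plasmid library in pooled LB shake-flask culture, induced with 0.3% L-arabinose, DNA abundance read by NGS, three biological replicates, DESeq2 with apeglm shrinkage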
# procedure_summary: shrunken log2 fold change of peptide-encoding DNA abundance (4.5 h post-induction vs induction); higher = less antimicrobial activity (less host growth inhibition)
# stated_conditions: time post-induction: 4.5 h; library: site-saturation at positions 5, 18, 19, 20
observed_property: shrunken log2 fold change
Give bare numbers.

Dear reader, for each entry below, please note its shrunken log2 fold change.
1. RRIRSRPPRLPRPRPRPYFKPRP
2. RRIRNRPPRLPRPRPRPRYLPRP

result:
1. -0.857
2. -0.547

# per-item lookup of shrunken log2 fold change; items listed below
1. RRIRFRPPRLPRPRPRPPGPPRP
2. RRIRYRPPRLPRPRPRPPDIPRP
3. RRIRERPPRLPRPRPRPSRWPRP
4. RRIRPRPPRLPRPRPRPNNSPRP
5. RRIRFRPPRLPRPRPRPTTGPRP
6. RRIRFRPPRLPRPRPRPLFHPRP

result:
0.897
-0.157
1.41
-0.488
-0.0819
-0.632
